Test system: SK-OV-3 ovarian
Experiment: NCI tumour cell line growth inhibition, 48 h; in the data active means GI50 below about 0.43 µM; inactive means the rest
Outcome codes: 1 for active, -1 for inactive

Molecule	Target or test system	Assigned class
O=C1NN(C2=NNC3(C(=O)N2)c2ccccc2-c2ccccc23)C(c2ccccc2)=N/C1=C/c1ccc(O)cc1	SK-OV-3 ovarian	-1
Cc1ccc2c3c(c(=O)[nH]c2c1)C1(C(C#N)=C(N)O3)c2cc(Br)ccc2-c2ccc(Br)cc21	SK-OV-3 ovarian	-1
O=C(O)[C@@H]1CCCCN1Cc1cc2cc3c(cc2c2cc(OCc4ccccc4)ccc12)OCO3	SK-OV-3 ovarian	-1
c1cc[c]([Pb]([c]2ccccc2)[c]2ccccc2)cc1	SK-OV-3 ovarian	-1
O=C(/C=C\n1cnc(-c2cc(C(F)(F)F)cc(C(F)(F)F)c2)n1)NNc1cnccn1	SK-OV-3 ovarian	-1
CCC(=O)c1c(C(F)(F)F)n([O-])c2ccc(C)cc2[n+]1=O	SK-OV-3 ovarian	-1
Cc1ccc(NC(=O)c2sc3nc(C)c(C(O)c4ccccc4)cc3c2N)cc1 (configuration not stated)	SK-OV-3 ovarian	-1
CC[C@H](C)[C@H]1O[C@]2(C=C[C@@H]1C)C[C@@H]1C[C@@H](C/C=C(\C)[C@@H](O[C@H]3C[C@H](OC)[C@@H](O[C@H]4C[C@H](OC)[C@@H](NC)[C@H](C)O4)[C@H](C)O3)[C@@H](C)/C=C/C=C3\CO[C@@H]4[C@H](O)C(C)=C[C@@H](C(=O)O1)[C@]34O)O2	SK-OV-3 ovarian	-1
C=C(C)C1CCC2(C(=O)O)CCC3(C)C(CCC4C5(C)CCC(OC(=O)NCc6ccccc6)C(C)(C)C5CCC43C)C12 (configuration not stated)	SK-OV-3 ovarian	-1
C=C[C@H]1C[C@@H]2C[C@@H]3[C@H]4C/C=C\C(=O)NCCCC5NC(=O)C(=C(O)/C=C/[C@@H]4CC(=O)[C@H]3[C@@H]2[C@H]1C)C5=O (some centres not stated)	SK-OV-3 ovarian	1
COc1ccc2nc3cc(Cl)ccc3c(NCCN)c2c1	SK-OV-3 ovarian	-1
COc1ccccc1Cn1cc2c(c1-c1ccccc1)CCc1cnoc1-2	SK-OV-3 ovarian	-1
COc1ccc(-c2nnc(COc3ccc(NC(=O)Nc4ccc(Cl)c(C(F)(F)F)c4)cc3F)o2)cc1	SK-OV-3 ovarian	-1
Cc1ccc(NC(=O)NCCCOc2ccc(N3C(N)=NC(N)=NC3(C)C)cc2Cl)cc1S(=O)(=O)F	SK-OV-3 ovarian	-1
Cc1ccc(C(=O)Nc2ccc(CN3CCN(C)CC3)c(C(F)(F)F)c2)cc1C#Cc1cnc(N)c2ccccc12	SK-OV-3 ovarian	-1
Cn1c2ccccc2c2c3[nH]c(=O)[nH]c(=O)c3c3c4ccccc4n(C)c3c21	SK-OV-3 ovarian	-1
CC1(C)N=C(N)N=C(N)N1c1ccc(OCc2ccc(S(=O)(=O)F)c(Cl)c2)c(Cl)c1	SK-OV-3 ovarian	-1
